assay: Cytotoxicity against rat skeletal myoblast L6 cells; assay type: cell-based; conditions: L6 cells (rat skeletal myoblasts); pure compounds and reference drug; rat skeletal myoblast L6 cells; mean of two independent assays; read-out: IC50 Cytotoxicity
pIC50: −log10 of the molar value.
measured attribute: pIC50

{"molecule": "CC=C1C[N+]2(C)C3CC1C(CO)(C(=O)OC)C2Cc1c3[nH]c2ccccc12 (stereo not shown)", "observed": 3.57}

----------
System: P. falciparum
Experiment: In vitro antiplasmodial assay (P. falciparum NF54, intraerythrocytic)
Details: rat
Method: The in vitro activity was assessed on T. b. rhodesiense (STIB900, bloodstream forms), T. cruzi (Tulahuen C2C4, intracellular amastigotes), L. donovani (MHOM-ET-67/L82, axenically grown amastigotes), P. falciparum (NF54, intraerythrocytic), and L6 cells (rat skeletal myoblasts) as previously described. Results are expressed in µg/mL for extracts and in µM for pure compounds.

{"compound": "COC(=O)[C@@H]1CC23CCCN4CC[C@@]5(c6ccccc6N(C(=O)OC)C15CC2)[C@@H]43 (stereo partly shown) [Compound 11, pleiocarpine]", "selectivity ratio": 5.8}
